Measured values drawn from paper PMC3785238 for this set.

Below: a set of entries, each annotated with reported Kd.
# TARGET: Homer1a, full length, recombinant
# ASSAY_NAME: ITC
Non-standard residues stand in square brackets, D forms with d. No end group written: not given here. pT = C[C@@H](OP(=O)(O)O)[C@H](N)C(=O)O; pS = N[C@@H](COP(=O)(O)O)C(=O)O

BINDER	Kd, nM
KELVALTPP[pS]PFRD [mGluR5 peptide spanning the Homer/Pin1 binding site, bacterially expressed, phosphorylated at S1126]	1560
KELVAL[pT]PP[pS]PFRD	470
